assay: inhibition of NOD2-driven NF-kB reporter – cell-based, luminescence, uHTS, HEK293 (AID 1566); details: HEK293 NOD2/NF-kB luciferase reporter, at 4 µM, stronger effect = higher value
Out of some 290,000 compounds screened, about 1,800 (0.62%) were called active. Shown is part of a subset that was picked to be rich in actives.
Quick reference: inhibition of the listed items.

- compound: "O=C(O)CCC(=O)N1N=C(c2ccco2)CC1c1cccs1 (stereo not given)"
  inhibition / %: 12.1
- compound: "COc1ccc(CNC2CCSc3ccccc32)cc1OC (stereo not given)"
  inhibition / %: 23.3
- compound: "COCc1cc(C)nc(Nc2ccccc2OC)c1C#N"
  inhibition / %: 3
- compound: "C=CCNS(=O)(=O)CC12CCC(CC1=O)C2(C)C (stereo not given)"
  inhibition / %: 5.2
- compound: "CCCn1c(=O)c(C(=O)Nc2c(C)n(C)n(-c3ccccc3)c2=O)c(O)c2ccccc21"
  inhibition / %: 0.6
- compound: "Nc1nonc1C(=O)N/N=C/c1ccc(-c2cccc([N+](=O)[O-])c2)o1"
  inhibition / %: 19.7
- compound: "CCOC(=O)c1c(NC(=O)CSc2nc3ccccc3c(=O)n2-c2ccc(F)cc2)sc(C(C)=O)c1C"
  inhibition / %: -19.4
- compound: "Cc1ccc(C(=O)NNC(=O)CCN2C(=O)C3CCCCC3C2=O)cc1 (stereo not given)"
  inhibition / %: 11.6
- compound: "Cc1oc(-c2ccc(Cl)cc2)nc1CN1CCCC(C(=O)N2CCOCC2)C1 (stereo not given)"
  inhibition / %: 10.7
- compound: "O=C1OCCC1Sc1nnc(-c2cccnc2)n1-c1ccccc1F (stereo not given)"
  inhibition / %: 13.6
- compound: "O=C(/C=C/c1cccc(Cl)c1)NCc1ccccc1"
  inhibition / %: 9.9
- compound: "CCCCCC(C)NC(=O)c1ccoc1C (stereo not given)"
  inhibition / %: 12.6
- compound: "COC(=O)Cc1cc(=O)[nH]c(Nc2nc3ccccc3o2)n1"
  inhibition / %: -8.6
- compound: "CCOC(=O)c1ccc(NC(=S)N2CCCC(C(=O)OCC)C2)cc1 (stereo not given)"
  inhibition / %: -6
- compound: "CC(C)=C(NC(=O)c1ccccc1)C(=O)NCc1ccccc1"
  inhibition / %: -7
- compound: "CCCc1nnc(NC(=O)CCC(=O)N2CCN(Cc3ccc(Cl)cc3)CC2)s1"
  inhibition / %: 53.2
- compound: "O=C(O)c1ccccc1C(=O)Nc1ccc(Oc2ccccc2)cc1"
  inhibition / %: 7.7
- compound: "COc1ccc(C)cc1Nc1n[n+](-c2ccccc2)c(-c2ccc(N(C)C)cc2)s1"
  inhibition / %: 8.3
- compound: "O=C(NCc1cccc(C(F)(F)F)c1)C1CC(c2c(Cl)cccc2Cl)=NO1 (stereo not given)"
  inhibition / %: -28.5
- compound: "CC[n+]1c(C)sc2cc(C)ccc21"
  inhibition / %: 5.7
- compound: "Cc1oc(-c2ccc(Cl)cc2)nc1CN1CCCN(C(=O)c2ccco2)CC1"
  inhibition / %: 18.6
- compound: "COc1ccc(S(=O)(=O)N(Cc2cc3cc(C)ccc3[nH]c2=O)CC2CCCO2)cc1 (stereo not given)"
  inhibition / %: 16.6
- compound: "COc1ccc(CCN=C(N)Nc2nc(C)cc(C)n2)cc1"
  inhibition / %: 8.4
- compound: "CC(=O)N1N=C(c2ccco2)CC1c1cccs1 (stereo not given)"
  inhibition / %: -8.2
- compound: "Cc1ccc2c(c1)sc(-c1ccc(N(C)C)cc1)[n+]2C"
  inhibition / %: 51
- compound: "COc1ccc(N/C(N)=N/c2nc(CSc3nnc(C)s3)cc(=O)[nH]2)cc1"
  inhibition / %: -37.9
- compound: "Cc1nc2scc(C)n2c(=O)c1S(=O)(=O)Nc1ccc(N2CCOCC2)c(Cl)c1"
  inhibition / %: 51.2
- compound: "CCOc1ccccc1N1CCN(C(=O)c2c(Cl)cnn2C)CC1"
  inhibition / %: 9.1
- compound: "N#Cc1c2n(c3c(=O)n(Cc4ccccc4Cl)cnc13)CCCCC2"
  inhibition / %: 16.9
- compound: "O=C(NCCc1ccc(F)cc1)Nc1ccccc1"
  inhibition / %: -13.6
- compound: "COc1ccc(CCC(=O)NNC(=O)c2cc(Cl)ccc2OC)cc1"
  inhibition / %: -4.6
- compound: "O=C(O)CN1C(=O)C2C3CC(C2C1=O)C1C(c2ccc(Cl)cc2)c2sc(=O)[nH]c2SC31 (stereo not given)"
  inhibition / %: 3.8
- compound: "O=C(O)c1ccccc1C(=O)Nc1ccc(Oc2cccc3ccccc23)cc1"
  inhibition / %: 61.3
- compound: "Cc1cccc(Oc2ccc(NC(=O)c3ccccc3C(=O)O)cc2)c1C"
  inhibition / %: 8.6
- compound: "O=C(c1cccc(S(=O)(=O)N2CCCC2)c1)c1cccc(S(=O)(=O)N2CCCC2)c1"
  inhibition / %: 32.8
- compound: "Cc1nc2sccn2c(=O)c1S(=O)(=O)Nc1ccc(N2CCOCC2)c(Cl)c1"
  inhibition / %: 33.7
- compound: "Cc1ccc(C2CC(c3cccs3)=NN2C(=O)CCl)cc1 (stereo not given)"
  inhibition / %: 37.3
- compound: "Cc1ccc(-n2c(C)nc3ncnc(-c4ccccc4)c32)cc1"
  inhibition / %: 17.9
- compound: "Cc1cccc(C(=O)NC(=S)Nc2ccc3[nH]c(=O)[nH]c3c2)c1"
  inhibition / %: -10.1
- compound: "CCCc1sc(N/N=C/c2ccccn2)nc1-c1ccc(Br)cc1"
  inhibition / %: -44.6
- compound: "Cc1oc(-c2ccc(Cl)cc2)nc1CN1CCCC(C(=O)N2CCN(C(=O)c3ccco3)CC2)C1 (stereo not given)"
  inhibition / %: 50
- compound: "COC(=O)C(CO)NC(=O)C(C)NC(=O)CNC(=O)OCc1ccccc1 (stereo not given)"
  inhibition / %: 9
- compound: "CCc1nnc(NC(=O)CCC(=O)N2CCN(Cc3ccc(Cl)cc3)CC2)s1"
  inhibition / %: 5.9
- compound: "COc1ccc(NC(=O)COC(=O)C2CCC(C(C)(C)C)CC2)c([N+](=O)[O-])c1 (stereo not given)"
  inhibition / %: 16.1
- compound: "O=C(CCc1n[nH]c(=O)[nH]c1=O)N/N=C/c1ccco1"
  inhibition / %: 11.3

* * *

test: inhibition of NOD2-driven NF-kB reporter – cell-based, luminescence, uHTS, HEK293 (AID 1566); settings: HEK293 NOD2/NF-kB luciferase reporter, at 4 µM
Among all 290,000 compounds or so, about 1,800 (0.62%) were called active. No stated cut-off is given here; in the data, active means inhibition above about 50%; inactive means the rest. For the sample, actives were picked, then their nearest neighbours and some compounds at random.
Classes used: 1.0 (active), 0.0 (inactive)

- compound: "COc1ccc(N2CC(C(=O)N3CCN(c4ccccc4OC)CC3)CC2=O)cc1 (centres undefined)"
  category_label: 0.0
- compound: "CS(=O)(=O)Nc1ccccc1C(=O)NCCSCc1ccccc1"
  category_label: 0.0
- compound: "CC1(CC(=O)N/N=C/c2ccc(-c3ccc(C(=O)O)cc3)o2)OCCO1"
  category_label: 0.0
- compound: "O=C(OC1CCCCC1)c1ccc(NC(=O)c2ccco2)cc1"
  category_label: 0.0
- compound: "CCOC(=O)N1CCN(Cc2cc(Cl)c3cccnc3c2O)CC1"
  category_label: 0.0
- compound: "COc1ccc(CCNc2oc(COc3ccccc3F)nc2C#N)cc1OC"
  category_label: 0.0
- compound: "COc1ccc(C(=O)N/N=C/c2c(CO)cnc(C)c2O)cc1"
  category_label: 0.0
- compound: "Cc1ncc(CO)c(/C=N/NC(=O)c2ccc(Br)cc2)c1O"
  category_label: 1.0
- compound: "CCN(Cc1ccccc1)C(=O)Cn1c(=O)n(CCC(=O)N2CCCCC2)c(=O)c2sccc21"
  category_label: 0.0
- compound: "Cc1ncc(CO)c(/C=N/Nc2ccc(C(F)(F)F)cn2)c1O"
  category_label: 1.0
- compound: "NC(=O)c1ccc(NC(=O)Cc2csc(-c3ccccc3)n2)cc1"
  category_label: 0.0
- compound: "COc1ccccc1NC(=O)CSc1n[nH]c(-c2cccnc2)n1"
  category_label: 0.0
- compound: "Cc1onc(-c2ccccc2Cl)c1C(=O)N1CCCCC1C(=O)O (centres undefined)"
  category_label: 0.0
- compound: "O=C(Nc1ccc(C(=O)OC2CCCCC2)cc1)c1ccncc1"
  category_label: 1.0
- compound: "COc1ccccc1N/N=C/c1c(CO)cnc(C)c1O"
  category_label: 0.0
- compound: "CCOc1ccc(OCc2ccc(C(=O)N/N=C(\\C)c3ccccn3)cc2)cc1"
  category_label: 1.0
- compound: "OCCN1CCN(Cc2cc(Cl)c3cccnc3c2O)CC1"
  category_label: 0.0
- compound: "CC(=O)CSc1nnc(Cc2ccc([N+](=O)[O-])cc2)o1"
  category_label: 0.0
- compound: "COc1ccc(NC(=O)c2sc3nc(N4CCOCC4)c4c(c3c2N)CCCC4)c(OC)c1"
  category_label: 0.0
- compound: "COc1ccc(Cc2nnc(SCc3ccc([N+](=O)[O-])cc3)o2)cc1"
  category_label: 1.0
- compound: "Cc1ccc(NC(=S)N(C)C)cc1C"
  category_label: 0.0
- compound: "O=C(Nc1ccncc1)c1c(F)c(F)c(F)c(F)c1F"
  category_label: 0.0
- compound: "O=C(NCCc1ccc(Cl)cc1)C1CCCN1C(=O)Nc1ccccc1 (centres undefined)"
  category_label: 0.0
- compound: "CC(C)C(O)(c1ccccc1)C(CN1CCOCC1)c1ccccc1 (centres undefined)"
  category_label: 1.0
